Values from patent US9938269B2

microsomal CLint at 0.5 μM values by entry
- experimental protocol: Determination of the microsomal half-life, human liver microsomes
- condition: human, liver microsomes, pH 7.4
Counter-ions that a name gives are not always drawn.

Here is how some compounds turned out for microsomal CLint at 0.5 μM.
compound: Cc1nc(CCN2Cc3nccc(N4CCOCC4)c3C2=O)sc1C
reported: < 100 µL/min/mg

compound: Cc1ccc2c(c1)nc(CCN1Cc3nccc(-c4ccnn4C)c3C1=O)n2C
reported: < 100 µL/min/mg

compound: Cn1nccc1-c1ccnc2c1C(=O)N(CCc1nc3ccccc3s1)C2 [compound 432, trifluoroacetate]
reported: < 100 µL/min/mg

compound: COc1ccc(-c2ccnc3c2CN(CCc2cn4ccccc4n2)C3=O)cc1 [compound 461, trifluoroacetate]
reported: < 100 µL/min/mg

[in] Requested field: microsomal CLint at 0.5 μM. Item: `O=C1c2c(-c3ccc(F)cc3)ccc(F)c2CN1CCc1cn2ccccc2n1`
[out] 100 to 220 µL/min/mg

[in] microsomal CLint at 0.5 μM lookup needed for COc1cccc(CCN2Cc3nccc(-c4cccnc4)c3C2=O)n1 [compound 503, trifluoroacetate] , thanks.
[out] 100 to 220 µL/min/mg

[in] Can you look up the measured microsomal CLint at 0.5 μM of `O=C1c2c(cccc2N2CCOCC2)CN1CCc1ccc2sccc2n1` for me?
[out] 100 to 220 µL/min/mg
